# PROTOCOL_DETAILS: Inhibition of human ABCB1 expressed in NCI-ADR-RES cells assessed as potentiation of vincristine-induced cytotoxicity by measuring vincristine IC50 at 100 nM after 72 hrs by MTT assay (Rvb = 3714.80 +/- 383.58 nM)
REPORTED_METRIC: IC50 (nM)
Response body: numeric value in nM, unit text excluded.

Please look at this compound and report its IC50: COc1ccc2cc1Oc1ccc(cc1)C[C@H]1c3cc(c(OC)cc3CCN1C)Oc1c(OC)c(OC)c(OC)c3c1[C@H](C2)N(C)CC3 [CHEBI:5677]
2660

====

# PROTOCOL_DETAILS: Inhibition of human ABCB1 expressed in NCI-ADR-RES cells assessed as potentiation of doxorubicin-induced cytotoxicity by measuring doxorubicin IC50 at 1000 nM after 72 hrs by MTT assay (Rvb = 5.54 +/- 0.60 uM)
REPORTED_METRIC: IC50

Please look at this compound and report its IC50: COc1cc2c(cc1OC)CN(CCc1ccc(NC(=O)c3cc(OC)c(OC)cc3NC(=O)c3cnc4ccccc4c3)cc1)CC2
240 nM

Values were extracted from BindingDB's records for doi:10.1021/acs.jnatprod.6b00597.
